These entries and their values trace back to the supplement of paper PMC10567573.

B1: STEAP1 (parent)
chain: WMLTRKQFGLLSFFFAVLHAIYSL

# Variants of: B1
# assay_notes: protein stability index of a GFP-peptide fusion (GPS, HEK-293T) (PSI 1-6); higher = more stable;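 also: lentivirally expressed fusions sorted by FACS into six bins by GFP to DsRed ratio, PSI derived from sequencing read proportions per bin multiplied by bin number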
# setup_conditions: c terminus: a fixed tail appended
observation_type: protein stability index
// no unit, no text: just the number

Look up protein stability index: W1Q
1.85

Look up protein stability index: G9S
1.98

Look up protein stability index: S23I
1.92

Look up protein stability index: F15S
1.74

Look up protein stability index: Q7K
1.8

Look up protein stability index: F14R
1.51

Look up protein stability index: I21C
2.21

Look up protein stability index: M2A
1.74

Look up protein stability index: F14N
2.85

Look up protein stability index: L3V
1.52

Look up protein stability index: H19I
2.58

Look up protein stability index: A20L
2.46

Look up protein stability index: F15C
1.77

Look up protein stability index: L18E
3.98

Look up protein stability index: R5M
2.47

Look up protein stability index: W1T
2.75

Look up protein stability index: T4I
2.3

Look up protein stability index: M2P
2.23

Look up protein stability index: V17T
2.33

Look up protein stability index: G9A
2.27

Look up protein stability index: S12W
2.76

Look up protein stability index: S23M
2.3
